# System: HeLa Kyoto
# experimentalDetails: solubility change mitosis vs G1/S (difference of NP-40 vs SDS log2 ratios) (log2 ratio difference); higher = more soluble in mitosis
Hi there, I'd appreciate the recorded solubility change mitosis (log2) for every entry that follows.
One number for each entry.

// solved cases for solubility change mitosis (log2) follow
1. MALAARLLPQFLHSRSLPCGAVRLRTPAVAEVRLPSATLCYFCRCRLGLGAALFPRSARALAASALPAQGSRWPVLSSPGLPAAFASFPACPQRSYSTEEKPQQHQKTKMIVLGFSNPINWVRTRIKAFLIWAYFDKEFSITEFSEGAKQAFAHVSKLLSQCKFDLLEELVAKEVLHALKEKVTSLPDNHKNALAANIDEIVFTSTGDISIYYDEKGRKFVNILMCFWYLTSANIPSETLRGASVFQVKLGNQNVETKQLLSASYEFQREFTQGVKPDWTIARIEHSKLLE [C2ORF47] | -0.117
2. MAGKAHRLSAEERDQLLPNLRAVGWNELEGRDAIFKQFHFKDFNRAFGFMTRVALQAEKLDHHPEWFNVYNKVHITLSTHECAGLSERDINLASFIEQVAVSMT [PCBD1] | 0.0567

Which solubility change mitosis (log2) is reported with HeLa Kyoto for this entry: MAEKFDCHYCRDPLQGKKYVQKDGHHCCLKCFDKFCANTCVECRKPIGADSKEVHYKNRFWHDTCFRCAKCLHPLANETFVAKDNKILCNKCTTREDSPKCKGCFKAIVAGDQNVEYKGTVWHKDCFTCSNCKQVIGTGSFFPKGEDFYCVTCHETKFAKHCVKCNKAITSGGITYQDQPWHADCFVCVTCSKKLAGQRFTAVEDQYYCVDCYKNFVAKKCAGCKNPITGKRTVSRVSHPVSKARKPPVCHGKRLPLTLFPSANLRGRHPGGERTCPSWVVVLYRKNRSLAAPRGPGLVKAPVWWPMKDNPGTTTASTAKNAP [FHL1] ?
-0.0498

* * *

Hi there, I'd appreciate the recorded melting temperature for every entry that follows.
# Test system: HeLa Kyoto
# experimentalDetails: melting temperature (median over replicates), in situ; higher = more thermally stable
# testParameters: cell cycle stage: mitosis
Numbers only, in °C.

// solved cases for melting temperature follow
1. MARSVRVLVDMDGVLADFEAGLLRGFRRRFPEEPHVPLEQRRGFLAREQYRALRPDLADKVASVYEAPGFFLDLEPIPGALDAVREMNDLPDTQVFICTSPLLKYHHCVGEKYRWVEQHLGPQFVERIILTRDKTVVLGDLLIDDKDTVRGQEETPSWEHILFTCCHNRHLVLPPTRRRLLSWSDNWREILDSKRGAAQRE [NT5C] | 57
2. MIKAILIFNNHGKPRLSKFYQPYSEDTQQQIIRETFHLVSKRDENVCNFLEGGLLIGGSDNKLIYRHYATLYFVFCVDSSESELGILDLIQVFVETLDKCFENVCELDLIFHVDKVHNILAEMVMGGMVLETNMNEIVTQIDAQNKLEKSEAGLAGAPARAVSAVKNMNLPEIPRNINIGDISIKVPNLPSFK [AP3S1] | 51.2
3. MVAYWRQAGLSYIRYSQICAKAVRDALKTEFKANAEKTSGSNVKIVKVKKE [ATP5E] | 51.8
4. MDPGDDWLVESLRLYQDFYAFDLSGATRVLEWIDDKGVFVAGYESLKKNEILHLKLPLRLSVKENKGLFPERDFKVRHGGFSDRSIFDLKHVPHTRLLVTSGLPGCYLQVWQVAEDSDVIKAVSTIAVHEKEESLWPRVAVFSTLAPGVLHGARLRSLQVVDLESRKTTYTSDVSDSEELSSLQVLDADTFAFCCASGRLGLVDTRQKWAPLENRSPGPGSGGERWCAEVGSWGQGPGPSIASLGSDGRLCLLDPRDLCHPVSSVQCPVSVPSPDPELLRVTWAPGLKNCLAISGFDGTVQVYDATSWDGTRSQDGTRSQVEPLFTHRGHIFLDGNGMDPAPLVTTHTWHPCRPRTLLSATNDASLHVWDWVDLCAPR [WDR73] | 54
5. MAITLEEAPWLGWLLVKALMRFAFMVVNNLVAIPSYICYVIILQPLRVLDSKRFWYIEGIMYKWLLGMVASWGWYAGYTVMEWGEDIKAVSKDEAVMLVNHQATGDVCTLMMCLQDKGLVVAQMMWLMDHIFKYTNFGIVSLVHGDFFIRQGRSYRDQQLLLLKKHLENNYRSRDRKWIVLFPEGGFLRKRRETSQAFAKKNNLPFLTNVTLPRSGATKIILNALVAQQKNGSPAGGDAKELDSKSKGLQWIIDTTIAYPKAEPIDIQTWILGYRKPTVTHVHYRIFPIKDVPLETDDLTTWLYQRFVEKEDLLSHFYETGAFPPSKGHKEAVSREMTLSNLWIFLIQSFAFLSGYMWYNIIQYFYHCLF [LPGAT1] | 51.3

Batch of 8 sequences: report melting temperature for each.
1. MSLVIRNLQRVIPIRRAPLRSKIEIVRRILGVQKFDLGIICVDNKNIQHINRIYRDRNVPTDVLSFPFHEHLKAGEFPQPDFPDDYNLGDIFLGVEYIFHQCKENEDYNDVLTVTATHGLCHLLGFTHGTEAEWQQMFQKEKAVLDELGRRTGTRLQPLTRGLFGGS [YBEY]
2. MEAQAQGLLETEPLQGTDEDAVASADFSSMLSEEEKEELKAELVQLEDEITTLRQVLSAKERHLVEIKQKLGMNLMNELKQNFSKSWHDMQTTTAYKKTHETLSHAGQKATAAFSNVGTAISKKFGDMSYSIRHSISMPAMRNSPTFKSFEERVETTVTSLKTKVGGTNPNGGSFEEVLSSTAHASAQSLAGGSRRTKEEELQC [TPD52L1]
3. MHPAGLAAAAAGTPRLRKWPSKRRIPVSQPGMADPHQLFDDTSSAQSRGYGAQRAPGGLSYPAASPTPHAAFLADPVSNMAMAYGSSLAAQGKELVDKNIDRFIPITKLKYYFAVDTMYVGRKLGLLFFPYLHQDWEVQYQQDTPVAPRFDVNAPDLYIPAMAFITYVLVAGLALGTQDRFSPDLLGLQASSALAWLTLEVLAILLSLYLVTVNTDLTTIDLVAFLGYKYVGMIGGVLMGLLFGKIGYYLVLGWCCVAIFVFMIRTLRLKILADAAAEGVPVRGARNQLRMYLTMAVAAAQPMLMYWLTFHLVR [YIF1B]
4. MAAPPEPGEPEERKSLKLLGFLDVENTPCARHSILYGSLGSVVAGFGHFLFTSRIRRSCDVGVGGFILVTLGCWFHCRYNYAKQRIQERIAREEIKKKILYEGTHLDPERKHNGSSSN [COX20]
5. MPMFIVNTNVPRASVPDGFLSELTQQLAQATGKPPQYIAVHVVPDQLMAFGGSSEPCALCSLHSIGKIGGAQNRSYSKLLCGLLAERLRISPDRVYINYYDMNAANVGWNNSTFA [MIF]
6. MASGVTVNDEVIKVFNDMKVRKSSTQEEIKKRKKAVLFCLSDDKRQIIVEEAKQILVGDIGDTVEDPYTSFVKLLPLNDCRYALYDATYETKESKKEDLVFIFWAPESAPLKSKMIYASSKDAIKKKFTGIKHEWQVNGLDDIKDRSTLGEKLGGNVVVSLEGKPL [CFL2]
7. MEKIPVSAFLLLVALSYTLARDTTVKPGAKKDTKDSRPKLPQTLSRGWGDQLIWTQTYEEALYKSKTSNKPLMIIHHLDECPHSQALKKVFAENKEIQKLAEQFVLLNLVYETTDKHLSPDGQYVPRIMFVDPSLTVRADITGRYSNRLYAYEPADTALLLDNMKKALKLLKTEL [AGR2]
8. MSGFSTEERAAPFSLEYRVFLKNEKGQYISPFHDIPIYADKDVFHMVVEVPRWSNAKMEIATKDPLNPIKQDVKKGKLRYVANLFPYKGYIWNYGAIPQTWEDPGHNDKHTGCCGDNDPIDVCEIGSKVCARGEIIGVKVLGILAMIDEGETDWKVIAINVDDPDAANYNDINDVKRLKPGYLEATVDWFRRYKVPDGKPENEFAFNAEFKDKDFAIDIIKSTHDHWKALVTKKTNGKGISCMNTTLSESPFKCDPDAARAIVDALPPPCESACTVPTDVDKWFHHQKN [PPA1]

[49.7, 53.6, 54.8, 58, 52.5, 54.2, 53.4, 54.2]

* * *

# System: HeLa Kyoto
# experimentalDetails: thermal stability score vs G1/S (z-score of summed log2 fold changes over temperatures); higher = more thermally stable than in G1/S
# testParameters: cell cycle stage: mitosis
endpoint: thermal stability score

// solved cases for thermal stability score follow
1. MVGSLNCIVAVSQNMGIGKNGDLPWPPLRNEFRYFQRMTTTSSVEGKQNLVIMGKKTWFSIPEKNRPLKGRINLVLSRELKEPPQGAHFLSRSLDDALKLTEQPELANKVDMVWIVGGSSVYKEAMNHPGHLKLFVTRIMQDFESDTFFPEIDLEKYKLLPEYPGVLSDVQEEKGIKYKFEVYEKND [DHFR] | 2.73
2. MAAMASLGALALLLLSSLSRCSAEACLEPQITPSYYTTSDAVISTETVFIVEISLTCKNRVQNMALYADVGGKQFPVTRGQDVGRYQVSWSLDHKSAHAGTYEVRFFDEESYSLLRKAQRNNEDISIIPPLFTVSVDHRGTWNGPWVSTEVLAAAIGLVIYYLAFSAKSHIQA [SSR4] | -0.139

Turning now to a further record.
Fill in the blank: the reported thermal stability score of MAALRVLLSCVRGPLRPPVRCPAWRPFASGANFEYIIAEKRGKNNTVGLIQLNRPKALNALCDGLIDELNQALKTFEEDPAVGAIVLTGGDKAFAAGADIKEMQNLSFQDCYSSKFLKHWDHLTQVKKPVIAAVNGYAFGGGCELAMMCDIIYAGEKAQFAQPEILIGTIPGAGGTQRLTRAVGKSLAMEMVLTGDRISAQDAKQAGLVSKICPVETLVEEAIQCAEKIASNSKIVVAMAKESVNAAFEMTLTEGSKLEKKLFYSTFATDDRKEGMTAFVEKRKANFKDQ [ECHS1] is ____.
-1.89
